In this section, each of the binders is paired with its reported Specificity (Kd, β3/Kd, β1).
Target: T1, TGF-beta 3 (human, UniProt P10600 301-412)
T1 construct: Bought protein; also called TGF-β3
T1 sequence (looked up): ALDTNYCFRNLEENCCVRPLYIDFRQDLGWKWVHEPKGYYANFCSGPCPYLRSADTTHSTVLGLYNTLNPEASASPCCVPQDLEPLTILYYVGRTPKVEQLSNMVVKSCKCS
Assay: ratio of Biacore Kd for TGF-β3 to Kd for TGF-β1
Respond with the number and no other words.

Sample answers from the record:
// query Specificity (Kd, β3/Kd, β1) value for entry mAb DM4 (antibody, human IgG4 S228P, kappa, V domains shown, Full-length IgG4 antibody; also called LA307-DM4) VH: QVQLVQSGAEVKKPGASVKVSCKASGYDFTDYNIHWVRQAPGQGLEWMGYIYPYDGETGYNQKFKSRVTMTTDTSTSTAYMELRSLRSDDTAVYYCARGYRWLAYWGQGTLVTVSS VL: DIQMTQSPSSLSASVGDRVTITCRASSSVSYMHWYQQKPGKAPKPLIYATSNLAYGVPSRFSGSGSGTDFTLTISSLQPEDFATYYCQQWDLNPPAFGQGTKLEIKR
621

// query Specificity (Kd, β3/Kd, β1) value for entry mAb DM7 (antibody, V domains shown) VH: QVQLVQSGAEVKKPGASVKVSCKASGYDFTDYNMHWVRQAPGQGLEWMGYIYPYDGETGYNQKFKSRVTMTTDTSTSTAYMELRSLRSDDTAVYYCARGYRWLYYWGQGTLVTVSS VL: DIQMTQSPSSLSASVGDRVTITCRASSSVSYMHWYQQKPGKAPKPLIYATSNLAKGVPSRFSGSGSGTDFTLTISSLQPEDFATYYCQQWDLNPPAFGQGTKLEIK
2320

// query Specificity (Kd, β3/Kd, β1) value for entry mAb 21D1 (antibody, human IgG4 S228P, kappa, V domains shown, Full-length IgG4 antibody; also called LA307-21D1) VH: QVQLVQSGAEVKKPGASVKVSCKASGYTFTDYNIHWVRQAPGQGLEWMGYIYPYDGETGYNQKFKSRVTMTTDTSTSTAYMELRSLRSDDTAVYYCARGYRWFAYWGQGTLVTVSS VL: DIQMTQSPSSLSASVGDRVTITCRASSSVPYMHWFQQKPGKAPKSLIYATSNPAYGVPSRFSGSGSGTDFTLTISSLQPEDFATYYCQQWDLNPPAFGQGTKLEIKR
9800

Please look at the following binder next.
// query Specificity (Kd, β3/Kd, β1) value for entry mAb 23A3 (antibody, V domains shown) VH: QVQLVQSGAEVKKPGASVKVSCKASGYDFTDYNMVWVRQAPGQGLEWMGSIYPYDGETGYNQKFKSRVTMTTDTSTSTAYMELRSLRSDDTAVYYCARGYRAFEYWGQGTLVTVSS VL: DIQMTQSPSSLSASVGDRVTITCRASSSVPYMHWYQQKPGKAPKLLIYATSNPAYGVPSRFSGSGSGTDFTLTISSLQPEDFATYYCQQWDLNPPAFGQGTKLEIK
1050
